Quick reference: G2/M Phase (%) of the listed items.
Tested on: MDA-435 cells
experiment description: Cell cycle analysis in MDA-435 cells
Type: cell-based, human
experimental setup: 20 h, Taxol 30 nM, Comp. 1 100 nM, Comp. 2 500 nM, Comp. 3 10 nM, Comp. 6 800 mM (so in the source), Comp. 46 50 nM
Protocol: MDA-435 cells were cultured in 6-well plates at 1×10^6 cells/well and were untreated (negative control), treated with Taxol (positive control), or treated with a compound of the invention at 37° C. for 20 h. The cells were detached with 1× trypsin and washed one time with PBS. Cycle TEST PLUS kit (BD PharMingen, Cat #340242) was used to stain the cells. Cell cycle was analyzed with FACScomp program (BS PharMingen).
Form entry: value (%) — number only.

Consider the reported G2/M Phase (%) for these molecules:
CCc1cc(-c2oncc2-c2ccc3ccccc3c2)c(O)cc1OC [Compound 2]	30.53
CC(=O)O[C@H]1C(=O)[C@@]2(C)[C@H]([C@H](OC(=O)c3ccccc3)[C@]3(O)C[C@H](OC(=O)[C@H](O)[C@@H](NC(=O)c4ccccc4)c4ccccc4)C(C)=C1C3(C)C)[C@]1(OC(C)=O)CO[C@@H]1C[C@@H]2O [Taxol, reference compound]	32.32
COc1cc(-c2oncc2-c2ccc3c(c2)OCCO3)cc(OC)c1OC [Compound 46]	28.18

**Query** Notebook entry, MDA-435 cells assay: G2/M Phase (%) of COc1cc(-c2oncc2-c2ccc(Br)cc2)cc(OC)c1OC [Compound 1] = ?
**Result** 32.60

**Query** Notebook entry, MDA-435 cells assay: G2/M Phase (%) of CCc1cc(-c2oncc2-c2ccc(Br)cc2)c(O)cc1OC [Compound 6] = ?
**Result** 35.96

###

System: MES-SA (uterine sarcoma)
experiment description: In vitro cytotoxicity, MTS assay, MES-SA
Format: cell-based, human
experimental setup: MES-SA (Uterine Carcinoma), 72 hours, Hydrochloride
Structures can show the parent of a compound that is named as a salt.
endpoint name: IC50 (nM)
Form entry: value (nM) — number only.

**Query** Query (compound): COc1ccc(-c2cnoc2-c2cc(OC)c(OC)c(OC)c2)cc1NC(=O)C(C)N (stereo not shown) [Compound 204, Hydrochloride] ; field requested: IC50
**Result** 106

###

Test system: MES-SA (uterine sarcoma)
experiment description: In vitro cytotoxicity, MTS assay, MES-SA
Assay type: cell-based, human
experimental setup: MES-SA (Uterine Carcinoma), 72 hours
endpoint name: IC50 (nM)
Form entry: value (nM) — number only.

**Query** Notebook entry, MES-SA (uterine sarcoma) assay: IC50 of COc1ccc(-c2cnoc2-c2cc(OC)c(OC)c(OC)c2)cc1NC(=O)C(C)N (stereo not shown) = ?
**Result** 2

###

System: H29 (colon carcinoma)
experiment description: In vitro cytotoxicity, MTS assay, H29
Format: cell-based
experimental setup: Homo sapiens, 72 hours
endpoint name: pIC50
Quick note: pIC50 means taking -log10 of the concentration in moles per liter.

COc1cc(-c2oncc2-c2ccc3c(c2)OCCO3)cc(OC)c1OC [Compound 46]	7.30
CC(=O)O[C@H]1C(=O)[C@@]2(C)[C@H]([C@H](OC(=O)c3ccccc3)[C@]3(O)C[C@H](OC(=O)[C@H](O)[C@@H](NC(=O)c4ccccc4)c4ccccc4)C(C)=C1C3(C)C)[C@]1(OC(C)=O)CO[C@@H]1C[C@@H]2O [Taxol, reference compound]	8.00

**Query** Query (molecule): CCc1cc(-c2oncc2-c2ccc(I)cc2)c(O)cc1OC [Compound 4] ; field requested: pIC50
**Result** 7.30
